pIC50 by entry:
- System: cultured human mast cells (CHMC)
- Procedure Summary: CHMC low cell density IgE activation: tryptase assay
- Assay type: cell-based
- Measurement Conditions: low cell density; read-out: CHMC anti-IgE Tryptase
pIC50: −log10 of the molar value.
Endpoint: pIC50

1) CC1(C)Oc2ccc(Nc3nc(Nc4ccc(N5CCOCC5)cc4)ncc3F)nc2NC1=O
6.84
2) O=C(NCCO)C1Cc2cc(Nc3ncc(F)c(Nc4ccc(OC(F)(F)F)c(Cl)c4)n3)ccc2O1 (racemic)
6.52
3) Cn1ncc2ccc(Nc3ncc(F)c(Nc4ccc5c(n4)NC(=O)C(C)(C)O5)n3)cc21
7.22
4) CNC(=O)COc1cccc(Nc2ncc(F)c(Nc3ccc4c(c3)[C@@H](NC(=O)OCc3ccccc3)CCO4)n2)c1
5.67
5) NC1CCOc2ccc(Nc3ncc(F)c(Nc4ccc(Cl)c(Cl)c4)n3)cc21 (racemic)
6.09
6) COc1ccc(Nc2nc(Nc3ccc4cn(C)nc4c3)ncc2F)cc1Cl
6.40
7) CC1(C)Oc2ccc(Nc3nc(Nc4cccc(Cl)c4)ncc3F)nc2NC1=O
5.47
8) Nc1cccc(Nc2nc(Nc3cccc(O)c3)ncc2F)n1
6.50
9) CNC(=O)COc1cccc(Nc2ncc(F)c(Nc3ccc4c(c3)C(NC)CCO4)n2)c1 (racemic)
6.52
10) CC1(C)Oc2ccc(Nc3nc(Nc4ccc5cc[nH]c5c4)ncc3F)nc2NC1=O
7.37
11) Cn1ncc2ccc(Nc3ncc(F)c(Nc4ccc5c(c4)NC(=O)C(F)(F)O5)n3)cc21
7.60
12) Cc1cc(C)cc(Nc2ncc(F)c(Nc3ccc4c(c3)NC(=O)C(C)(C)O4)n2)c1
7.15
13) COc1cc(Nc2ncc(F)c(Nc3ccc4c(c3)NC(=O)C(CCO)O4)n2)cc(OC)c1 (racemic)
7.13
14) O=C(COc1cccc(Nc2ncc(F)c(NC3CC3)n2)c1)NC1CCC1
6.00
15) COc1ccc(Nc2ncc(F)c(Nc3ccc4c(c3)NC(=O)C(C)(C)O4)n2)c(OC)n1
6.05
16) CNC(=O)COc1cccc(Nc2ncc(F)c(Nc3cccc(OCC(=O)NC)c3)n2)c1
6.12
17) COc1cc(Nc2ncc(F)c(Nc3ccc4c(c3)NC(=O)C(F)(F)O4)n2)cc(OC)c1
7.22
18) CC(C)(C)OC(=O)NCc1ccc(Nc2ncc(F)c(Nc3ccc(Cl)c(Cl)c3)n2)cc1
5.88
19) Cc1cc(Nc2ncc(F)c(Nc3ccc4c(n3)NC(=O)C(C)(C)O4)n2)cc(Cl)c1O
4.78
20) COc1ccc(Nc2ncc(F)c(Nc3ccc4c(c3)C(NC(=O)OC(C)(C)C)CCO4)n2)cc1Cl (racemic)
5.72
21) Fc1ccc(Nc2nc(Nc3ccc4cn[nH]c4c3)ncc2F)cc1F
6.30
22) CC(=O)N1CCN(c2ccc(Nc3ncc(F)c(Nc4ccc5c(n4)NC(=O)CO5)n3)cc2)CC1
7.03

----------
- Measurement Target: Syk kinase (Homo sapiens)
- Procedure Summary: Syk kinase biochemical fluorescence polarization assay
- Measurement Conditions: isolated Syk kinase, fluorescence polarization, 4 uM ATP
pIC50: −log10 of the molar value.
Endpoint: pIC50

1) O=C1COc2ccc(Nc3nc(Nc4cccc(OCC(=O)NC5CCC5)c4)ncc3F)nc2N1
7.46
2) Cn1ncc2ccc(Nc3ncc(F)c(Nc4ccc5c(c4)NC(=O)C(C)(C)O5)n3)cc21
8.52
3) COc1ccc(Nc2ncc(F)c(Nc3ccc4c(n3)NC(=O)CO4)n2)cc1Cl
6.78

----------
- Procedure Summary: Mouse Reverse Passive Arthus reaction (RPA reaction)
- Assay type: in vivo, C57BL/6 mice
- Measurement Conditions: oral, 100 mg/kg, pretreatment time 1.5 hrs + 4 hours
Endpoint: Plasma Concentration ± SEM (ng/ml) Exposure = Pretreatment Time + 4 hours (ng/mL)

1. COc1cc(Nc2ncc(F)c(Nc3ccc4c(c3)NC(=O)C(C)(C)O4)n2)cc(OC)c1.Cc1ccc(S(=O)(=O)O)cc1 [Compound R927070]
4095
2. COc1ccc(Nc2nc(Nc3ccc4cc[nH]c4c3)ncc2F)cc1Cl.Cc1ccc(S(=O)(=O)O)cc1 [Compound R927087]
28.7
3. Cc1ccc(S(=O)(=O)O)cc1.Cc1ccc(S(=O)(=O)O)cc1.OCCCn1ncc2cc(Nc3ncc(F)c(Nc4ccc(Cl)c(Cl)c4)n3)ccc21 [Compound R935451]
1459.0

----------
- System: cultured human mast cells (CHMC)
- Procedure Summary: CHMC low cell density IgE activation: tryptase assay
- Type: cell-based
- Measurement Conditions: low cell density; read-out: CHMC anti-IgE Tryptase
Each entry below carries its recorded IC50.
Endpoint: IC50 (nM)

1. O=C(COc1cccc(Nc2ncc(F)c(NC3CCC3)n2)c1)NC1CCC1
2240
2. COc1cc(Nc2ncc(F)c(Nc3ccc(Cl)c(Cl)c3)n2)cc(OC)c1
222
3. COc1ccc(Nc2ncc(F)c(Nc3ccc4cc[nH]c4c3)n2)cc1Cl
270
4. CNC(=O)Cn1ncc2cc(Nc3ncc(F)c(Nc4ccc5c(c4)NC(=O)C(C)(C)O5)n3)ccc21
82

----------
Items are presented alongside their recorded pIC50.
- Test system: cultured human mast cells (CHMC)
- Procedure Summary: CHMC low cell density IgE activation: tryptase assay
- Format: cell-based
- Measurement Conditions: low cell density; read-out: CHMC anti-IgE Tryptase
pIC50: −log10 of the molar value.
Endpoint: pIC50

1) CC1(C)Oc2ccc(Nc3nc(Nc4ccc5cc[nH]c5c4)ncc3F)cc2NC1=O
6.92
2) COc1cc(Nc2ncc(F)c(Nc3ccc4c(c3)NC(=O)C(C)(C)O4)n2)cc(OC)c1 [Compound R927074]
7.14
3) COc1ccc(Nc2nc(Nc3cc(C)c(O)c(Cl)c3)ncc2F)cc1Cl
6.60
4) Cc1cc(Nc2ncc(F)c(Nc3ccc4c(c3)NC(=O)C(F)(F)O4)n2)cc(Cl)c1O
7.47
5) Cn1ncc2ccc(Nc3ncc(F)c(Nc4ccc5c(c4)NC(C)(C)CO5)n3)cc21
7.30
6) CNC(=O)CCn1ncc2cc(Nc3ncc(F)c(Nc4ccc(OC)c(Cl)c4)n3)ccc21
6.44
7) CCN(C(C)=O)c1ccc(Nc2ncc(F)c(Nc3ccc4c(n3)NC(=O)CO4)n2)cc1
6.43
8) CC1(C)Oc2ccc(Nc3ncc(F)c(Nc4ccc5[nH]ncc5c4)n3)cc2NC1=O
6.38
9) Cc1cc(Nc2ncc(F)c(Nc3ccc4cnn(C)c4c3)n2)cc(Cl)c1O
6.56
10) O=C1Nc2cc(Nc3nc(Nc4cc(Cl)cc(Cl)c4)ncc3F)ccc2OC1(F)F
6.85
11) COc1c(Cl)cc(Nc2ncc(F)c(Nc3ccc4c(c3)NC(=O)C(F)(F)O4)n2)cc1Cl
6.90
12) CNC(=O)COc1cccc(Nc2ncc(F)c(Nc3ccc(OC4CCC(NC(=O)OC(C)(C)C)CC4)c(Cl)c3)n2)c1 (mixture of isomers)
6.04
13) COc1ccc(Nc2ncc(F)c(Nc3ccc4c(c3)NC(=O)C(F)(F)O4)n2)cc1Cl
6.86
14) COC(=O)Cn1ncc2cc(Nc3ncc(F)c(Nc4ccc5c(c4)NC(=O)C(C)(C)O5)n3)ccc21
7.24
15) COc1cc(Nc2ncc(F)c(Nc3ccc(N4CCOCC4)c(Cl)c3)n2)cc(C(F)(F)F)c1
5.00
16) COc1ccc(Nc2ncc(F)c(Nc3ccc4c(c3)NC(=O)C(C)(C)O4)n2)cc1Cl
6.79
17) CNC(=O)CCn1ncc2ccc(Nc3ncc(F)c(Nc4ccc(Cl)c(Cl)c4)n3)cc21
6.24
18) COc1cc(Nc2nc(Nc3ccc4c(cnn4C)c3)ncc2F)ccc1F
6.38
19) COc1cc(Nc2ncc(F)c(Nc3ccc4c(c3)NC(=O)C(C)(C)O4)n2)cc(OC)c1.Cc1ccc(S(=O)(=O)O)cc1
7.27
20) CNC(=O)COc1cccc(Nc2ncc(F)c(Nc3ccc(OCCO)c(Cl)c3)n2)c1
6.77
21) CC(C)[C@@H]1CC[C@@H](C)C[C@H]1OC(=O)[C@H]1Cc2cc(Nc3ncc(F)c(Nc4ccc5c(c4)NC(=O)C(F)(F)O5)n3)ccc2O1
6.07
22) COC(=O)c1ccc(Cn2ncc3ccc(Nc4ncc(F)c(Nc5ccc6c(c5)NC(=O)C(C)(C)O6)n4)cc32)c(OC)c1
6.15

----------
# Lookup of reported IC50 keyed by entry
- Measurement Target: Syk kinase (Homo sapiens, UniProt P43405)
- Procedure Summary: Syk kinase biochemical fluorescence polarization assay
- Measurement Conditions: isolated Syk kinase, fluorescence polarization, 4 uM ATP
Endpoint: IC50

1. CC(C)Oc1ccc(Nc2ncc(F)c(Nc3ccc4c(n3)NC(=O)CO4)n2)cc1 [Compound R945413]
> 10 µM
2. Oc1cccc(Nc2ncc(F)c(Nc3ccc(Cl)cn3)n2)c1 [Compound R927020]
> 10 µM
3. CCOC(=O)COc1cccc(Nc2ncc(C(=O)OCC)c(Nc3cccc(O)c3)n2)c1 [Compound R926798]
> 10 µM

----------
- Measurement Target: Syk kinase (Homo sapiens, UniProt P43405)
- Procedure Summary: Syk kinase biochemical fluorescence polarization assay
- Measurement Conditions: isolated Syk kinase, fluorescence polarization, 4 uM ATP
hey, just use t if measured IC50 is less than 0.06 µM, otherwise f

1) COc1cc(Nc2ncc(F)c(Nc3cccc(N)n3)n2)cc(OC)c1
f
2) COc1c(C)cc(Nc2nc(Nc3cccc(OCCN4CCNCC4)c3)ncc2F)cc1C
f
3) Fc1cnc(Nc2ccc3cn[nH]c3c2)nc1Nc1ccc(Cl)c(Cl)c1
f
4) Oc1c(Cl)cc(Nc2ncc(F)c(Nc3ccc4c(c3)OCCO4)n2)cc1Cl
t
5) COc1cc(Nc2ncc(F)c(Nc3cccc(O)c3)n2)cc(OC)c1
f
6) Cc1cc(Nc2ncc(F)c(Nc3ccc4c(c3)NC(=O)C(C)(C)O4)n2)cc(Cl)c1O
t
7) COC(=O)Cn1ncc2cc(Nc3ncc(F)c(Nc4ccc5c(c4)NC(=O)C(C)(C)O5)n3)ccc21
f
8) CNC(=O)CCn1ncc2cc(Nc3ncc(F)c(Nc4ccc5c(c4)NC(=O)C(C)(C)O5)n3)ccc21
f
9) CNC(=O)COc1cccc(Nc2ncc(F)c(Nc3ccc4c(c3)NC(=O)[C@H](C)O4)n2)c1
t
10) CNC(=O)COc1cccc(Nc2ncc(F)c(Nc3cc(C)ccn3)n2)c1
f

// data source = patent US8158621B2
